- protocol_notes: Permeability of the compound at 5 mg/ml after 18 hrs by PAMPA-BBB assay
- Assay type: ADME
- assay_context: in the assay text read “25 ug/ml” for “5 mg/ml”
measurement_kind: permeability

                           structure_string  measurement_kind          result
0  C[C@@H](NC(=O)[C@@H](CC(=O)N1CCC(N2CCCCC2)CC1)N1C(=O)[C@@H](N2C(=O)OC[C@@H]2c2ccccc2)[C@H]1/C=C/c1cccc(I)c1)c1ccccc1      permeability  2.2 ×10⁻⁶ cm/s

* * *

Consider the following compounds and their measured permeability readings.
- protocol_notes: Permeability of the compound at 25 ug/ml after 18 hrs by PAMPA-BBB assay
measurement_kind: permeability (×10⁻⁶ cm/s)

In [3]: df
Out[3]:
                           structure_string  measured_number
0  Cc1cccc(/C=C/[C@@H]2[C@H](N3C(=O)OC[C@@H]3c3ccccc3)C(=O)N2[C@H](CC(=O)N2CCC(N3CCCCC3)CC2)C(=O)N[C@H](C)c2ccccc2)c1              4.5
1  C[C@@H](NC(=O)[C@@H](CC(=O)N1CCC(N2CCCCC2)CC1)N1C(=O)[C@@H](N2C(=O)OC[C@@H]2c2ccccc2)[C@H]1/C=C/c1cccc(F)c1)c1ccccc1              5.3

Numbers sourced from ChEMBL document CHEMBL1938251.
